Target: T1, HLA-A*02:01 (human, biotinylated heavy chain)
T1 construct: Conditional HLA class I complex first loaded with a UV-labile peptide, exchanged for the test peptide after UV; also called conditional HLA class I complex
Test: UV peptide exchange + HLA class I ELISA
Rule: exchange rate vs Pos peptide below 10% gives True. Equal to or above 10% gives False.

The examples below pair each entry with its known result.
NSKMALNSL [P35 9-mer peptide (TMPRSS2-ERG fusion)] = False
GVLRRLLCR [P37 9-mer peptide (TSTD1-F11R fusion)] = False
STRRAVRRM (Synthetic 9-mer fragment) [P16 9-mer peptide (MSMB-NCOA4 fusion)] = False
NMVENGCYL [P59 9-mer peptide (FOXA1 (F254V))] = False

With those in mind, consider the next binder.
Exercise: Please let me know if IQYSCMGLM [P50 9-mer peptide (AR (W742C))] shows exchange rate vs Pos peptide below 10%.
Key: True

Sourced from patent US20200222478A1
